pIC50: −log10 of the molar value.
Literature pIC50 values, system: Tyrosine-protein kinase JAK3 (Homo sapiens).

Worked examples follow.
[
  {
    "compound": "N#CC1(C(=O)NC2CC=C(c3cccc4nc(NC(=O)C5CC5)nn34)CC2)CC1 (centres undefined)",
    "observedValue": "< 5.00"
  },
  {
    "compound": "C=CC(=O)Nc1cccc(-n2cnc3cnc(Nc4ccc(N5CCOCC5)cc4)nc32)c1",
    "observedValue": "< 7.00"
  },
  {
    "compound": "COc1ccc(NC(=O)N2CCc3c(sc(NC(=O)c4cnn(C)c4)c3C#N)C2)cc1",
    "observedValue": "< 5.30"
  }
]

Below: the item to evaluate.
Looking for the measured pIC50 of Cc1ccc(NC(=O)c2cccc(C(F)(F)F)c2)cc1C(=O)Nc1cncnc1 , can you help?
< 4.60

* * *

Literature IC50 values, system: Tyrosine-protein kinase JAK3 (Homo sapiens).
experimentalSystem: Tyrosine-protein kinase JAK3 (Homo sapiens)
Sequence (P52333 whole entry): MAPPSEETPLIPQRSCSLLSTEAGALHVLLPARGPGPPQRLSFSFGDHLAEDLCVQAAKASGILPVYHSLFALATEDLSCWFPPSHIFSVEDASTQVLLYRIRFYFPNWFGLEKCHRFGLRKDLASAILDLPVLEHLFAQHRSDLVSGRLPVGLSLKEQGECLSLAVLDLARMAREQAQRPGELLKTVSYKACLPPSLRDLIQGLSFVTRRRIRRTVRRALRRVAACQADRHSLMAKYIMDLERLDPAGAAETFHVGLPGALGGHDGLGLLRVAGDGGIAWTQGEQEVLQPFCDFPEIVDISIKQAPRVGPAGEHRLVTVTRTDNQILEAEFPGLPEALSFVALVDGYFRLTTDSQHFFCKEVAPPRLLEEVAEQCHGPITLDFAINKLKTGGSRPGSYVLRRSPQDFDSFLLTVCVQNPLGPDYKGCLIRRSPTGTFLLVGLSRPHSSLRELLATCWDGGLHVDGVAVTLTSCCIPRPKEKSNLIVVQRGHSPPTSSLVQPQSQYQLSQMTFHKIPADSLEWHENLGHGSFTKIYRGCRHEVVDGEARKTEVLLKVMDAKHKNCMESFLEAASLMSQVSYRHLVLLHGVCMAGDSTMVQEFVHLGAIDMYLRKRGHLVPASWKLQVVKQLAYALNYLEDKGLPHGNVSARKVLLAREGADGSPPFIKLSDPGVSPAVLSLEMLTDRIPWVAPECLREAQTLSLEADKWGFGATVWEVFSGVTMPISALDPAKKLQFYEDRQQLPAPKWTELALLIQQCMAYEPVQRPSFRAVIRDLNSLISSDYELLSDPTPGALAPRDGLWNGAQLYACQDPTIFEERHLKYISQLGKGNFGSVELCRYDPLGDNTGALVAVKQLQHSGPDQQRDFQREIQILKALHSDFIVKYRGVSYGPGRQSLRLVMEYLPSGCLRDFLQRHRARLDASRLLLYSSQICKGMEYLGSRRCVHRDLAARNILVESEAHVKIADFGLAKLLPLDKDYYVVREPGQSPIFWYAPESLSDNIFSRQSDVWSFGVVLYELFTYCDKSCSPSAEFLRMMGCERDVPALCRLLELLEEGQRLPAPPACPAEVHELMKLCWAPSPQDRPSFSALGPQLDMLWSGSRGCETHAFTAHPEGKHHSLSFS

Worked examples follow.
[
  {
    "compound": "Cc1ccc(C(=O)Nc2cccc(C(F)(F)F)c2)cc1NC(=O)c1cnc(NCCN2CCOCC2)nc1Oc1ccccc1",
    "experimentalSystem": "Tyrosine-protein kinase JAK3 (Homo sapiens)",
    "recordedMetric": "IC50",
    "observedValue": "> 25 µM"
  },
  {
    "compound": "CC(C)C(Nc1cnnc(-c2c[nH]c3ncc(C#N)cc23)n1)C(=O)NCC(C)(C)C (centres undefined)",
    "experimentalSystem": "Tyrosine-protein kinase JAK3 (Homo sapiens)",
    "recordedMetric": "IC50",
    "observedValue": "≤ 0.01 µM"
  },
  {
    "compound": "Cc1n[nH]c2cc(Nc3nc(NC4CC4)c4occc4n3)ccc12",
    "experimentalSystem": "Tyrosine-protein kinase JAK3 (Homo sapiens)",
    "recordedMetric": "IC50",
    "observedValue": "> 10 µM"
  }
]

Looking for the measured IC50 of Cc1ccc(C(=O)Nc2ccon2)cc1NC(=O)c1cnn(-c2ccccc2F)c1N , can you help?
> 10 µM

* * *

Literature IC50 values, system: Tyrosine-protein kinase JAK3 (Homo sapiens, UniProt P52333).

Worked examples follow.
[
  {
    "smilesRepresentation": "O=C(NC1CC1)c1cc(NCc2cnc(Nc3ccccn3)s2)c(F)cc1F",
    "IC50": "> 50 µM"
  },
  {
    "smilesRepresentation": "COc1cc2c(Oc3ccc(-c4cnc(Cc5ccccc5)n(C)c4=O)cc3F)ccnc2cc1OCCCN1CCOCC1",
    "IC50": "> 8.3 µM"
  },
  {
    "smilesRepresentation": "CNC(=O)c1cc(Oc2ccc(NC(=O)Nc3cc(C(C)(C)C)nn3-c3ccc4ncccc4c3)c(F)c2)ccn1",
    "IC50": "> 1 µM"
  }
]

Looking for the measured IC50 of FC(F)(F)CNc1nc(Nc2ccc(N3CCOCC3)c(Cl)c2)nc2ccoc12 , can you help?
> 10 µM

* * *

Literature IC50 values, system: Tyrosine-protein kinase JAK3 (Homo sapiens, UniProt P52333).
experimentalSystem: Tyrosine-protein kinase JAK3 (Homo sapiens, UniProt P52333)
Sequence (P52333 whole entry): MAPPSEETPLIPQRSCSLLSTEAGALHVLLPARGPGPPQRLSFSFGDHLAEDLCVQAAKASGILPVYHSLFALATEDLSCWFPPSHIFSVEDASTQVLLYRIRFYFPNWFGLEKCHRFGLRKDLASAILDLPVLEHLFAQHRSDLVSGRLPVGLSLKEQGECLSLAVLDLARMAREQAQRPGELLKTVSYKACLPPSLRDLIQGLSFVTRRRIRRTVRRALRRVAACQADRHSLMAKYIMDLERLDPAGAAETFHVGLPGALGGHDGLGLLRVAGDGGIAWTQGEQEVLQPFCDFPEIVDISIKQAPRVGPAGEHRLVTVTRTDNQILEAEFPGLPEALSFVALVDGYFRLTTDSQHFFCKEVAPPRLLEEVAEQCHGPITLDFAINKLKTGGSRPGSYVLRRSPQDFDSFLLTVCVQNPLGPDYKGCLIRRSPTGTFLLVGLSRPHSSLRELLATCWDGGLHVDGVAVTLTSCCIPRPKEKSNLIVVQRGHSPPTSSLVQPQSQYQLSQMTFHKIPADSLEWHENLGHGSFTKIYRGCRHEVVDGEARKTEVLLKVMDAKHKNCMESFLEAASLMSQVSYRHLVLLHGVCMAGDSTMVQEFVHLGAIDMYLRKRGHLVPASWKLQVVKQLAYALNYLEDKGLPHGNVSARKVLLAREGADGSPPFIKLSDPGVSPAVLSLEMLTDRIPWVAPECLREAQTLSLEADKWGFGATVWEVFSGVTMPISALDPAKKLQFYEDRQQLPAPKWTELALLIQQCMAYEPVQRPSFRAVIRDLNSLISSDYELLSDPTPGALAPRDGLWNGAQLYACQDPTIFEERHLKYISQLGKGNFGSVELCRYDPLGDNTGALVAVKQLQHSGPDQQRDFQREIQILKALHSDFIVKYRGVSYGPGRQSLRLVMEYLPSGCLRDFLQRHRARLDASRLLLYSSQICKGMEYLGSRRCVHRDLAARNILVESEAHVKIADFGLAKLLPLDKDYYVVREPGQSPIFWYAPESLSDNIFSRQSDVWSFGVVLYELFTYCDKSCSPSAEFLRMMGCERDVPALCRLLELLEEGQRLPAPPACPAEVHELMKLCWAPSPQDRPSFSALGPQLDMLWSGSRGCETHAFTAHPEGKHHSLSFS

Worked examples follow.
[
  {
    "compound": "C[C@@H]1CCN(C(=O)CC#N)C[C@@H]1n1c(=O)n(C)c2cnc3[nH]ccc3c21 (racemic)",
    "IC50": "0.005 µM"
  },
  {
    "compound": "Cc1ccc(NC(=O)c2ccc3c(c2)OC(F)(F)O3)cc1C(=O)Nc1cnc(Nc2ccc(N3CCN(C)CC3)cc2)nc1",
    "IC50": "> 25 µM"
  }
]

Below: the item to evaluate.
Looking for the measured IC50 of CC1(C)OCC(=O)Nc2cc(Nc3nc(NCC(F)(F)F)c4occc4n3)ccc21 , can you help?
> 10 µM

* * *

experimentalSystem: Tyrosine-protein kinase JAK3 (Homo sapiens)
Sequence (P52333 whole entry): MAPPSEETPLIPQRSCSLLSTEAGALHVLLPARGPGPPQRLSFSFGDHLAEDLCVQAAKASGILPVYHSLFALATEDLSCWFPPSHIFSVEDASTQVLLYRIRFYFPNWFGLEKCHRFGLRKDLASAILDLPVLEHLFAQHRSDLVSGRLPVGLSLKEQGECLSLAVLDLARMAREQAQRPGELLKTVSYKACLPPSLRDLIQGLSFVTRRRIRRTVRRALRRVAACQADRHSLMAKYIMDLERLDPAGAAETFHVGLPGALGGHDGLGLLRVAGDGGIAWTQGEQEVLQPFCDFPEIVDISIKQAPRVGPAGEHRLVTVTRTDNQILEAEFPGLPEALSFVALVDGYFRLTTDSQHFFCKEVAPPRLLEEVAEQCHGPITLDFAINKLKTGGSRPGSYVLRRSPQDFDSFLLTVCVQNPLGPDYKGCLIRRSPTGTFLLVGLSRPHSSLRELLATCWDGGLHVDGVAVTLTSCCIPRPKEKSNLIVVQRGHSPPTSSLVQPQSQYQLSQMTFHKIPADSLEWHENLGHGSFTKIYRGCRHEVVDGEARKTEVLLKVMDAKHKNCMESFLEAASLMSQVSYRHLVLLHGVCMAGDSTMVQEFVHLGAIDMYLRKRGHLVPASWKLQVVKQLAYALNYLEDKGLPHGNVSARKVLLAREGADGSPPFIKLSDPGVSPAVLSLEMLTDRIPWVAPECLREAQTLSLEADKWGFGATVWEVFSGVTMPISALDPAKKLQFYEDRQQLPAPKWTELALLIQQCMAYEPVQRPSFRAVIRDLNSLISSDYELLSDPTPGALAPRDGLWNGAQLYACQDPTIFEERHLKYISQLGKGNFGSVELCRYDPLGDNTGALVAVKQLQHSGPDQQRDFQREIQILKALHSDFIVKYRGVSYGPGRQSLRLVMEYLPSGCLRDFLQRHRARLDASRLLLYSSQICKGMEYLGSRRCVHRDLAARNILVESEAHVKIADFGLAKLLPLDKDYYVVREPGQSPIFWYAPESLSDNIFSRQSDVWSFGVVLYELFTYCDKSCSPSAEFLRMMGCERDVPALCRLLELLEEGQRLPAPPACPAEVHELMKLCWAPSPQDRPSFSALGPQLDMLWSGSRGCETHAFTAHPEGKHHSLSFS
Literature IC50 values, system: Tyrosine-protein kinase JAK3 (Homo sapiens).

Looking for the measured IC50 of COc1cc(C(=O)Nc2ccc(NC(=O)c3ccccc3)cc2)ccc1O , can you help?
> 30 µM

Next molecule up: COc1ncc(-c2cc3c(c(NC(=O)CN4CCOCC4)c2)COC3)cc1NS(C)(=O)=O
> 10 µM

Next molecule up: C=CC(=O)N1CCC[C@@H](n2nc(-c3ccc(NC(=O)C4CCN(C)CC4)c4c3OCO4)c3c(N)ncnc32)C1
> 10 µM
